Ref: patent US20230233569A1

- subject_of_test: KRAS G12S (Homo sapiens, UniProt P01116+P62937, G12S)
- Sequence (P01116 1-169 isoform P01116-2 G12S limits assumed): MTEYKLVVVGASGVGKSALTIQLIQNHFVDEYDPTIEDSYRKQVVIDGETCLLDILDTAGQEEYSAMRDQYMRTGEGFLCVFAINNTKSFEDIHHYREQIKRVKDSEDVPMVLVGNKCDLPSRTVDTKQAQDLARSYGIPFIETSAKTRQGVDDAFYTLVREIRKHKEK
- Sequence (P62937 whole entry): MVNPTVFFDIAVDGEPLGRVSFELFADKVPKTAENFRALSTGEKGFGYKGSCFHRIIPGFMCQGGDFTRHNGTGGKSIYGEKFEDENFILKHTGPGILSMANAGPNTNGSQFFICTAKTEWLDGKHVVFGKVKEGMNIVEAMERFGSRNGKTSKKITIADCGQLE
- procedure_summary: Disruption of BRAF RBD interaction with Ras (FRET / MOA assay, with Cyclophilin A)
- Format: biochemical
- applied_conditions: KRAS G12S FRET data, IC50
// reported IC50 per item

[[record]]
molecule = "CCn1c(-c2cccnc2[C@H](C)OC)c2c3cc(ccc31)-c1cccc(c1)C[C@H](NC(=O)[C@H](C(C)C)N(C)C(=O)[C@H]1CCN(C(=O)CNC)C1)C(=O)N1CCC[C@H](N1)C(=O)OCC(C)(C)C2"
measured_attribute = "IC50"
result_value = "1 to 10 µM"

[[record]]
molecule = "CCn1c(-c2cccnc2[C@H](C)OC)c2c3cc(ccc31)-c1csc(n1)C[C@H](NC(=O)N1CCC[C@@H]1COC)C(=O)N1CCC[C@H](N1)C(=O)OCC(C)(C)C2 (atropisomer, axis not shown)"
measured_attribute = "IC50"
result_value = "0.1 to 1 µM"

[[record]]
molecule = "CCn1c(-c2cnccc2COC)c2c3cc(ccc31)-c1cc(O)cc(c1)C[C@H](NC(=O)[C@H](C(C)C)N(C)C(=O)[C@H]1CCN(C=O)C1)C(=O)N1CCC[C@H](N1)C(=O)OCC(C)(C)C2"
measured_attribute = "IC50"
result_value = "0.1 to 1 µM"

[[record]]
molecule = "CCn1c(-c2cccnc2[C@H](C)OC)c2c3cc(ccc31)-c1csc(n1)C[C@H](NC(=O)[C@H](C(C)C)N(C)C(=O)N1CCC[C@@H](N(C)C)CC1)C(=O)N1CCC[C@H](N1)C(=O)OCC(C)(C)C2"
measured_attribute = "IC50"
result_value = "0.01 to 0.1 µM"


Pending molecule:
Query: Report IC50 for `CCN1C[C@@H](C(=O)N(C)[C@H](C(=O)N[C@H]2Cc3cc(O)cc(c3)-c3ccc4c(c3)c(c(-c3cnccc3COC)n4CC)CC(C)(C)COC(=O)[C@@H]3CCCN(N3)C2=O)C(C)C)CC1=O`
Response: 0.1 to 1 µM

====

- subject_of_test: KRAS G12V (Homo sapiens, UniProt P01116+P62937, G12V)
- Sequence (P01116 1-169 isoform P01116-2 G12V limits assumed, one chain of several): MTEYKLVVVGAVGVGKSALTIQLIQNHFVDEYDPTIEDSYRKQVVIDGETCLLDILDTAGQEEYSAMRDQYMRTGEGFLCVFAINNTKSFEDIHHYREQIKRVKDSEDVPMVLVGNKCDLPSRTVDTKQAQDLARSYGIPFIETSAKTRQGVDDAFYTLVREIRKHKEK
- procedure_summary: Disruption of BRAF RBD interaction with Ras (FRET / MOA assay, with Cyclophilin A)
- Assay type: biochemical
- applied_conditions: KRAS G12V; read-out: KRAS G12V FRET data IC50
pIC50: −log10 of the molar value.
// reported pIC50 per item

# example entries with known answers
[[record]]
molecule = "CCn1c(-c2cc(N3CCN(C)CC3)cnc2[C@H](C)OC)c2c3cc(ccc31)-c1csc(n1)C[C@H](NC(=O)[C@H](C1CCCC1)N(C)C(=O)N1CCC1)C(=O)N1CCC[C@H](N1)C(=O)OCC(C)(C)C2 (atropisomer, axis not shown)"
subject_of_test = "KRAS G12V (Homo sapiens, UniProt P01116+P62937, G12V)"
measured_attribute = "pIC50"
result_value = "7.00 to 8.00"

[[record]]
molecule = "CCn1c(-c2cccnc2[C@H](C)OC)c2c3cc(ccc31)-c1cc(O)cc(c1)C[C@H](NC(=O)[C@H](C1CCCC1)N(C)C(=O)N1CCS(=O)(=NC)CC1)C(=O)N1CCC[C@H](N1)C(=O)OCC(C)(C)C2"
subject_of_test = "KRAS G12V (Homo sapiens, UniProt P01116+P62937, G12V)"
measured_attribute = "pIC50"
result_value = "6.00 to 7.00"

[[record]]
molecule = "CCn1c(-c2cccnc2[C@H](C)OC)c2c3cc(ccc31)-c1csc(n1)C[C@H](NC(=O)[C@H](C(C)C)N(C)C(=O)N1CCN(C(=O)CN(C)C)CC1)C(=O)N1CCC[C@H](N1)C(=O)OCC(C)(C)C2 (atropisomer, axis not shown)"
subject_of_test = "KRAS G12V (Homo sapiens, UniProt P01116+P62937, G12V)"
measured_attribute = "pIC50"
result_value = "6.00 to 7.00"

[[record]]
molecule = "CCn1c(-c2cnccc2COC)c2c3cc(ccc31)-c1cc(O)cc(c1)C[C@H](NC(=O)[C@H](C(C)C)N(C)C(=O)OC1CN(C)C1)C(=O)N1CCC[C@H](N1)C(=O)OCC(C)(C)C2"
subject_of_test = "KRAS G12V (Homo sapiens, UniProt P01116+P62937, G12V)"
measured_attribute = "pIC50"
result_value = "5.00 to 6.00"


Query: Report pIC50 for `CCn1c(-c2cccnc2[C@H](C)OC)c2c3cc(ccc31)-c1cc(O)cc(c1)C[C@H](NC(=O)[C@H](C(C)C)N(C)C(=O)[C@H]1CCN(C(=O)CN(C)C)C1)C(=O)N1CCC[C@H](N1)C(=O)OCC(C)(C)C2`
Response: 7.00 to 8.00

Query: Report pIC50 for `CCn1c(-c2cccnc2[C@H](C)OC)c2c3cc(ccc31)-c1cc(O)cc(c1)C[C@H](NC(=O)[C@H](C(C)C)N(C)C(=O)[C@H]1C[C@@H]1C)C(=O)N1CCC[C@H](N1)C(=O)OCC(C)(C)C2`
Response: 6.00 to 7.00

Query: Report pIC50 for `CCn1c(-c2cccnc2[C@H](C)OC)c2c3cc(ccc31)-c1csc(n1)C[C@H](NC(=O)C1(F)COC1)C(=O)N1CCC[C@H](N1)C(=O)OCC(C)(C)C2`
Response: 6.00 to 7.00

Query: Report pIC50 for `CCn1c(-c2cccnc2[C@H](C)OC)c2c3cc(ccc31)-c1cccc(c1)C[C@H](NC(=O)[C@H](C(C)C)N(C)C(=O)[C@H]1CCN(CCO)C1)C(=O)N1CCC[C@H](N1)C(=O)OCC(C)(C)C2`
Response: < 5.00

Query: Report pIC50 for `CCn1c(-c2cc(C3CCN(C)CC3)cnc2[C@H](C)OC)c2c3cc(ccc31)-c1csc(n1)C[C@H](NC(=O)[C@H](C(C)C)N(C)C(=O)N1CC(C3COC3)C1)C(=O)N1CCC[C@H](N1)C(=O)OCC(C)(C)C2`
Response: 7.00 to 8.00

Query: Report pIC50 for CCn1c(-c2cccnc2[C@H](C)OC)c2c3cc(ccc31)-c1cc(O)cc(c1)C[C@H](NC(=O)C1[C@H]3COC[C@@H]13)C(=O)N1CCC[C@H](N1)C(=O)OCC(C)(C)C2 (some centres unmarked)
Response: 5.00 to 6.00

Query: Report pIC50 for C=CC(=O)N1CCOC2(CCN(C(=O)N(C)[C@H](C(=O)N[C@H]3Cc4nc(n(C)n4)-c4ccc5c(c4)c(c(-c4cccnc4[C@H](C)OC)n5CC(F)(F)F)CC(C)(C)COC(=O)C4CCCN(N4)C3=O)C(C)C)CC2)C1 (some centres unmarked)
Response: 6.00 to 7.00

Query: Report pIC50 for `CCn1c(-c2cccnc2[C@H](C)OC)c2c3cc(ccc31)-c1cc(O)cc(c1)C[C@H](NC(=O)[C@H](C(C)C)N(C)C(=O)[C@H]1CC[C@@H](CN(C)C)O1)C(=O)N1CCC[C@H](N1)C(=O)OCC(C)(C)C2`
Response: 6.00 to 7.00
